System: Histone deacetylase 1 (Homo sapiens) | Read-out: IC50 | Origin: multiple publications
Sequence (Q13547 whole entry): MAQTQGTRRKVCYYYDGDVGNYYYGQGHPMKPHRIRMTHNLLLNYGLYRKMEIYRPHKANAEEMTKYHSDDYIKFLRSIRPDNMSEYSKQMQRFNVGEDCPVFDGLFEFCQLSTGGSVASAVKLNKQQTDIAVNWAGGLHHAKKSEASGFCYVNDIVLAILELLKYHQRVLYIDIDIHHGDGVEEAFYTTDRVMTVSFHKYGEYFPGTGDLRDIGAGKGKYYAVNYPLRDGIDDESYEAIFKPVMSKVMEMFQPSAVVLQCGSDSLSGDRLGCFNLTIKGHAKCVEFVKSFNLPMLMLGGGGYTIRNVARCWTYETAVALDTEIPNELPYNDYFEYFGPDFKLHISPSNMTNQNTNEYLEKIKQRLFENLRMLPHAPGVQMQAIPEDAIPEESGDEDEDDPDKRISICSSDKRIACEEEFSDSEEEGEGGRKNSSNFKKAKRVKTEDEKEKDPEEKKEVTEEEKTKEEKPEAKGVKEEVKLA

Below: 2 molecules and their reported IC50.
C#CCN1C(=O)/C(=C2\Nc3ccccc3\C2=N/OCCCC(=O)NO)c2ccccc21 | > 100 µM
CN(C)c1ccc(/C=C/C(=O)NCCC(=O)NO)cc1 | > 250 µM

Field: next molecule
Problem: Give recorded IC50. COC(=O)CCCCCCC(=O)Nc1ccc(Nc2ncc3cc(C(=O)N(C)C)n(C4CCCC4)c3n2)cc1
Solution: > 5 µM

====

System: Histone deacetylase 1 (Homo sapiens) | Read-out: IC50 | Origin: multiple publications

Nc1ccccc1NC(=O)c1ccc(NC(=O)Nc2ccc(-c3nc(N4CCOCC4)nc(N4CCOCC4)n3)cc2)cc1 | > 10 µM
COc1cc(OC)cc(N(CCNC(C)C)c2ccc3ncc(-c4cnn(Cc5cccc(C(=O)NO)c5)c4)nc3c2)c1 | > 1 µM
CCNC(=O)c1cc2c(-c3cc(OCCCCCCn4cc(-c5nc(Nc6ccc(NC(=O)CCCCCCC(=O)NO)cc6)nc6[nH]ccc56)cn4)c(Cl)cc3Cl)nc(N)nc2s1 | > 100 µM

Field: next compound
Problem: Recall the reported IC50 of O=C(CCCCN1C(=O)[C@H](Cc2cncn2C(c2ccccc2)(c2ccccc2)c2ccccc2)N=C(c2ccccc2)c2ccccc21)NO on Histone deacetylase 1 (Homo sapiens) and write it down.
Solution: > 30 µM
